The origin of these recorded values is the supplement of paper PMC11780869.

system: Bacillus subtilis; assay: cleaved RNA product abundance (RNA/gDNA barcode ratio) relative to median wild-type variant (ratio to wild type); higher = more accumulation of the downstream cleavage product; settings: experiment (reporter, strain, medium): exp 4a: truncated aprE reporter, strain BJT201 with 2% xylose (RNase J1 expressed); cleavage site: cggR-gapA (positions -7 to +36 mutated)
property: cleaved RNA product abundance
Could you keep your reply to the number by itself?

Hey, Bacillus subtilis data for ACAGACGAAGGAGCCGCAAAGAAGTTATTAAGGGATGATTAAACCCTCAATATAAATATCTCTCACTTATTTAAA : cleaved RNA product abundance came out at 0.362

Measured cleaved RNA product abundance for this entry ACAGACGAAGGAGCCGCATAGAAGTTATTAAGGGATGAATAATCCCTCCATATAAATATCTCTCACTTATTTAAA on Bacillus subtilis: 0.24

Measured cleaved RNA product abundance for this entry ACAGACGAAGGAGCCGCAAAGAAGTTATTAAAGGATGAATAATCCCTCAATATAAATATATCTCACTTATTTAAA on Bacillus subtilis: 0.259

Bacillus subtilis cleaved RNA product abundance of ACAGACGAAGGAGCCGCAAAGAAGTTATGAAGGGATGAATAATCCCTCTATATAAATATCTCTCACTTATTTAAA is 0.516

Observed cleaved RNA product abundance, Bacillus subtilis, ACAGACGAAGGAGCCGCAAAGAAGTTATTAAGGCATGAATAATCCCTCAATATACATATCTCTCACTTATTTAAA : 0.129

Reading of cleaved RNA product abundance for ACAGACGAAGGAGCCGCTAAGAAGTTATTAAGAGATGAATAATCCCTCAATATAAATATCTCTCACTTATTTAAA with Bacillus subtilis: 0.135

Readout cleaved RNA product abundance for ACAGACGAAGGAGCCGCAAAGAAGTTATTCAGGGTTGAATAATCCCTCAATATAAATATCTCTCACTTATTTAAA , test system Bacillus subtilis, was 0.412

Record ACAGACGAAGGAGCCGCTAAGAAGTTATTAAGGTATAAATAATCCCTCAATATAAATATCTCTCACTTATTTAAA has Bacillus subtilis cleaved RNA product abundance equal to 0.0621

// cleaved RNA product abundance (Bacillus subtilis) for ACAGACGAAGGAGCCGCAAAGAAGTTATTAAGGTATAAATAATCCCTCAATATAAATATCTCTCACTTATTTAAA = 0.112

For ACAGACGAAGGAGCCGCAAAGAAGTTATTAAGGGCTGTATAATCCCTCAATATAAATATCTCTCACTTATTTAAA on Bacillus subtilis, measured cleaved RNA product abundance was 0.54

Record ACAGACGAAGGAGCCGCACAGAAGTTAATAAGGGATGAATAATCCCTCAATATAAATATCTCTCACTTATTTAAA / Bacillus subtilis, cleaved RNA product abundance recorded as 0.309

Known value: Bacillus subtilis cleaved RNA product abundance of the sequence ACAGACGAAGGAGCCGCAAACAAGTTATTAAGGTATGAATAATCCCTCAATATAAATATCTCTCACTTATTTAAA equals 0.0749

Note to self: cleaved RNA product abundance of ACAGACGAAGGAGCCGCAAAGAATTTATTAAGGGATGAATAATCACTCAATATAAATATCTCTCACTTATTTAAA with Bacillus subtilis was 0.119

Entry ACAGACGAAGGAGCCGCAAAGATGCTATTAAGGGATGAATAATCCCTCAATATAAATATCTCTCACTTATTTAAA under Bacillus subtilis had cleaved RNA product abundance of 0.848

The observed cleaved RNA product abundance for ACAGACGAAGGAGCCGCAAAGAAGTTATTAAGGGATGAATAATCCCTCCCTATAAATATCTCTCACTTATTTAAA when tested with Bacillus subtilis stands at 0.212

Let me check: ACAGACGAAGGAGCCGCAATGAAGTTATTAACGGATGAATAATCCCTCAATATAAATATCTCTCACTTATTTAAA , system Bacillus subtilis, measured cleaved RNA product abundance is 0.145

ACAGACGAAGGAGCCGCAAAGAAGTTATTAAGTGATGAATAATCCCTCAATATAATTATCTCTCACTTATTTAAA tested on Bacillus subtilis gave cleaved RNA product abundance: 0.0685

Lab note: sequence ACAGACGAAGGAGCCGCAAAGAAGTTGTTAAGGGATGAATAATTCCTCAATATAAATATCTCTCACTTATTTAAA tested on Bacillus subtilis; recorded cleaved RNA product abundance was 0.404

Hey, Bacillus subtilis data for ACAGACGAAGGAGCCGCAAAGAAGTTATTAAGGGTTGAATAATCCATCAATATAAATATCTCTCACTTATTTAAA : cleaved RNA product abundance came out at 0.205

Test item ACAGACGAAGGAGCCGCAAAGAAGGTATTAAGGGATGAATAATCCCTGAATATAAATATCTCTCACTTATTTAAA ; Bacillus subtilis; reported cleaved RNA product abundance was 1.45

ACAGACGAAGGAGCCGCAAAGAAGTTAATAAGGGAAGAATAATCCCTCAATATAAATATCTCTCACTTATTTAAA tested on Bacillus subtilis gave cleaved RNA product abundance: 0.17

Record for ACAGACGAAGGAGCCGCAAAGAAGTTATTAAGAGATGAATAATCCCTCAATATAAATATCTCTCACTTATTTAAA under target or system Bacillus subtilis: cleaved RNA product abundance reported as 0.147

Log: Bacillus subtilis, sequence ACAGACGAAGGAGCCGCAAAGAAGTTATTAAGGGCTGAATAATCCCTCAATATAAATAACTCTCACTTATTTAAA , cleaved RNA product abundance = 0.729

GET /values?item= ACAGACGAAGGAGCCGCAAAGAAGTTATTAAGGGATTAATAATCCCTCAATATACATATCTCTCACTTATTTAAA &system= Bacillus subtilis returns cleaved RNA product abundance: 0.799

Entry ACAGACGAAGGAGCCGCTAAGAAGTTATTAAGGGATGAATAATCTCTCAATATAAATATCTCTCACTTATTTAAA ; assay system Bacillus subtilis; cleaved RNA product abundance recorded at 1.12

Value (cleaved RNA product abundance, Bacillus subtilis) for record ACAGACGAAGGAGCCGCAAAGTAGTTAATAAGGGATGAATAATCCCTCAATATAAATATCTCTCACTTATTTAAA = 0.433

Short answer on Bacillus subtilis for ACAGACGAAGGAGCCGCAAAGAAGTTATTAAGGGATGAATAATCCATCAATATAAATATCTCTCACTTATTTAAA , cleaved RNA product abundance: 0.23
